target: T1, recombinant human GPC3 protein (human, UniProt P51654 25-563); experiment: BLI (Octet), antibody on Protein A probe
T1 construct: also called human GPC3 full-length protein; recombinant GPC3 protein
The following binders are shown together with reported kon values.
Measured Property: kon (M⁻¹ s⁻¹)

1) 49G8 (antibody, V domains shown, Chimeric human IgG1; also called 49G8 chimeric antibody; Mab 49G8) VH: QVQLQQSGAELVRPGASVKLSCKALGYTFADYEIHWVKQTPVHGLEWIGAIHPGSGGTAYNQTFEGKATLTADKSSTTAYMELSSLTSEDSAVYYCTRYYSFAYWGQGTLVTVSA VL: DVVMTQTPLSLPVSLGDQASISCRSSQSIVHSNGNTYLEWYLQKPGQSPKLLIYKVSNRFSGVPDRFSGSGSGTDFTLKISRVEAEDLGVYFCLQVTHVPLTFGAGTKLELK    69400
2) 46C3 (antibody, V domains shown, Chimeric human IgG1) VH: QVQLQQSGPELVKPGASVKISCKASGYTFTDYYINWVKQKPGQGLEWIGWIYPGSGNTKYNEKFKGKATLTVDTSSSTAYMQLSSLTSEDTAVYFCARGRWGQGTLVTVSA VL: DVVMTQTPLSLPVSLRDQASISCRSSQSLVHSNGNTYLHWYLQKPGQSPKLLIYKVSNRFSGVPDRFSGSGSGTDFTLKISRVEAEDLGVYFCSQSTHVPRTFGGGTKLELK    63600
3) 39G4 (antibody, V domains shown, Chimeric human IgG1) VH: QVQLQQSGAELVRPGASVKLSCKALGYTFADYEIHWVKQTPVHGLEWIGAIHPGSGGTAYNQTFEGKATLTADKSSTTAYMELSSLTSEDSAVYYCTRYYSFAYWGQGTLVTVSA VL: DVVVTQTPLSLPVSLGDQASISCRSSQSLVHSNGNTYLHWYLQKPGQSPKLLIYKVSNRFSGVPDRFSGSGSGTDFTLKISRVEAEDLGVYFCSQSTHVPTFGGGTKLEIK    79500
4) 41H1 (antibody, V domains shown, Chimeric human IgG1) VH: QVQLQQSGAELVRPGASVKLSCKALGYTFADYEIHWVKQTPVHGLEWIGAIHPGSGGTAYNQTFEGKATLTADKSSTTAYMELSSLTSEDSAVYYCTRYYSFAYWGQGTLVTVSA VL: DVVMTQTPLSLPVSLGDQASISCRSSQSLVHSNGNTYLHWYLQKPGQSPKLLIYKVSNRFSGVPDRFSGSGSGTDFTLRISRVEAEDLGVYFCSQSTRVPLTFGAGTKLELK    106000
5) 38D2 (antibody, V domains shown, Chimeric human IgG1) VH: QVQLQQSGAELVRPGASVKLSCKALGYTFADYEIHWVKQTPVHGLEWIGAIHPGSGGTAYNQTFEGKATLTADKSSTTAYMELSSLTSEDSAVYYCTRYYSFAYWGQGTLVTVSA VL: DVVMTQTPLSLPVSLGDQASISCRSSQSLENSNGNTYLNWYLQKPGQSPQLLIYRVSNRFSGVLDRFSGSGSGTDFTLKISRVEAEDLGVYFCLQVTHVPYTFGGGTKLEIK    73400
6) 28G4 (antibody, V domains shown, Chimeric human IgG1) VH: EVQLQQSGAELVRPGASVKLSCKALGYTFADYEIHWVKQTPVHGLEWIGAIHPGSGGTAYNQTFKGKATLTADKSSTTAYMELSSLTSEDSAVYYCTRYYSFAYWGQGTLVTVSA VL: DVLMTQTPLSLPVSLGDQASISCRSSQSIVHSNGNTYLQWYLQKPGQSPKLLIYKVSNRFSGVPDRFSGSGSGTDFTLKISRVEAEDLGVYYCFQGSHVPYTFGGGTKLEIK    98900
7) 47B6 (antibody, V domains shown, Chimeric human IgG1) VH: QVQLQQSGAELMKPGASVKISCKATGYTFSSYWIEWVKQRPGHGLEWIGEILPGSGSTNYNEKFKGKATFTADTSSNTAYMQLSSLTSEDSAVYYCARGYWGQGTLVTVSA VL: DIVMTQAPLSLPVSLGDQASISCRSSQSLVHSNGNTYLHWYLQKPGQSPKLLIYKVSNRFSGVPDRFSGSGSGTDFTLKISRVEAEDLGVYFCSQSTHVPRTFGGGTKLEIK    30800
8) 5D6 (antibody, V domains shown, Chimeric IgG: murine variable regions on human IgG1 CH1-CH3 and an antibody light chain constant region) VH: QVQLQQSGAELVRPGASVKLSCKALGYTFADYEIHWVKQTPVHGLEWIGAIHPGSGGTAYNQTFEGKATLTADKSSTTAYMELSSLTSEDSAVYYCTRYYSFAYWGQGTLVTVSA VL: DVLMTQTPLSLPVSLGDQASISCRSSQSLVHSNGNTYLHWYLQKPGQSPKLLIYKVSNRFSGVPDRFSGSGSGTDFTLKISRVEAEDLGVYFCSQSTHVPLTFGAGTKLELK    105000
9) 30B7 (antibody, V domains shown, Chimeric human IgG1) VH: QVQLQQSGAELVRPGASVRLSCKALGYTFTDYEMHWVKQTPVHGLEWIGAIHPGSGGTAYNQKFKGKATLTADKSSSTAYMELSSLTSEDSAVYYCTRYYSFAYWGQGTLVTVSA VL: DVLMTQTPLSLPVSLGDQASISCRSSQSLVHSNGNTYLHWYLQKPGQSPKLLIYKVSNRFSGVPDRFSGSGSGTDFTLKISRVEAEDLGVYFCSQSTHVPLTFGAGTKLEIK    71700
10) 41F1 (antibody, V domains shown, Chimeric human IgG1) VH: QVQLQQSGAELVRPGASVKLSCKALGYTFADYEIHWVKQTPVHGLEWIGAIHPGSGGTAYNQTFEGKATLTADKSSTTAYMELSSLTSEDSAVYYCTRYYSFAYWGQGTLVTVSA VL: DVLMTQTPLSLPVSLGDQASISCRSSQSLVHSNGNTYLHWYLQKPGQSPKLLIYKVSNRFSGVPDRFSGSGSGTDFTLKISRVEAEDLGVYFCSQNTHVPLTFGAGTKLELK    97900

Just for reference, patent US20240043568A1 is where these values come from.
